Exercise: state measured Ki for each of the compounds provided.
Target: N-terminally GST-tagged DLK (catalytic domain amino acid 1-520) (Homo sapiens, UniProt Q12852)
Construct: N-terminally GST-tagged DLK (catalytic domain amino acid 1-520)
Sequence (Q12852 1-520): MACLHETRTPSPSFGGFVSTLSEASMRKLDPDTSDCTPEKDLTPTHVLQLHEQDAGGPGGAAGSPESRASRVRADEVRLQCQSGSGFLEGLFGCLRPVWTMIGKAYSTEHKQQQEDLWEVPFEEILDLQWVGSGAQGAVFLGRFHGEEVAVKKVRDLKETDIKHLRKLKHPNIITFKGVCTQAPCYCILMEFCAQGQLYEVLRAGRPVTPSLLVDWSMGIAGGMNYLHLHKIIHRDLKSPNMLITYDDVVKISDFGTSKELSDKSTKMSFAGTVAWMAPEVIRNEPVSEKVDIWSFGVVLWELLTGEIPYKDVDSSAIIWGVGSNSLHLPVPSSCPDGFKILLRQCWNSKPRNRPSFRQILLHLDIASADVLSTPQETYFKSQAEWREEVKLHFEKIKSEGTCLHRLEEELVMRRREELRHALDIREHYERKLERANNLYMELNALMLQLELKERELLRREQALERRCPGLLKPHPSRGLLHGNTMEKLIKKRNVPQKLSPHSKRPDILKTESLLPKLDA
Experiment: DLK TR-FRET inhibition assay
Details: 5 nM GST-DLK, 40 nM HIS-MKK4 K131M substrate, 30 μM ATP, 60 minutes at ambient temperature
One number for each entry, in nM.

# annotated cases, reported Ki shown
{"columns": ["COMPOUND", "NUMERIC_VALUE"],
 "data": [
  ["CC(C)n1nc(-c2cnc(N)c(OC(F)(F)F)c2)cc1[C@H]1[C@@H]2C[C@@H](N3CCOCC3)C[C@@H]21", 1.2],
  ["COC1CCN([C@H]2C[C@@H]3[C@H](C2)[C@H]3c2cc(-c3cnc(N)c(C(F)(F)F)c3)nn2C(C)C)CC1", 2.7],
  ["COCCN(C)[C@@H]1C[C@@H]2[C@H](C1)[C@H]2c1cc(-c2cnc(N)c(C(F)(F)F)c2)nn1C(C)C", 4.7],
  ["Nc1ncc(-c2cc([C@H]3[C@@H]4C[C@H](N5CCOCC5)C[C@@H]43)n(CC3CC3)n2)cc1C(F)(F)F", 1.3],
  ["CC(C)n1nc(-c2cnc(N)c(C(F)(F)F)c2)cc1[C@H]1[C@@H]2C[C@H](N3CCOC[C@H]3C)C[C@@H]21 [compound 46]", 1.85]
]}

Could you report Ki for every entry in the following list?
1. CC(C)n1nc(-c2cnc(N)c(OC(F)F)c2)cc1[C@H]1[C@@H]2C[C@@H](N3CC4CC(C3)O4)C[C@@H]21
2. CC(C)n1nc(-c2cnc(N)c(OC(F)(F)F)c2)cc1[C@H]1[C@@H]2C[C@H](N3C[C@@H]4C[C@H]3CO4)C[C@@H]21
3. CO[C@@H]1CCN([C@@H]2C[C@@H]3[C@H](C2)[C@H]3c2cc(-c3cnc(N)c(OC(F)F)c3)nn2C(C)C)C1
4. CC(C)n1nc(-c2cnc3ccn([C@@H](C)c4ccccn4)c3c2)cc1[C@H]1[C@@H]2C[C@@H](N3CCOCC3)C[C@@H]21
5. CC(C)n1nc(-c2cnc(N)c(OC(F)(F)F)c2)cc1[C@H]1[C@@H]2C[C@@H](NCC(F)F)C[C@@H]21
6. Nc1ncc(-c2cc([C@H]3[C@@H]4C[C@H](N5CCCOCC5)C[C@@H]43)n(CC(F)F)n2)cc1OC(F)F
7. CC(C)n1nc(-c2cnc(N)c(C(F)(F)F)c2)cc1[C@H]1[C@@H]2CC(C#N)C[C@@H]21 (single isomer, unassigned) [compound 190]
8. Nc1ncc(-c2cc([C@H]3[C@@H]4CC(O)C[C@@H]43)n(CC(F)F)n2)cc1OC(F)(F)F (stereo partly shown)

result:
[1.4, 3.62, 2, 0.34, 6.3, 1.8, 4.8, 1.45]

###

Biological target: N-terminally GST-tagged DLK (catalytic domain amino acid 1-520) (Homo sapiens)
Construct: N-terminally GST-tagged DLK (catalytic domain amino acid 1-520)
Sequence (Q12852 1-520): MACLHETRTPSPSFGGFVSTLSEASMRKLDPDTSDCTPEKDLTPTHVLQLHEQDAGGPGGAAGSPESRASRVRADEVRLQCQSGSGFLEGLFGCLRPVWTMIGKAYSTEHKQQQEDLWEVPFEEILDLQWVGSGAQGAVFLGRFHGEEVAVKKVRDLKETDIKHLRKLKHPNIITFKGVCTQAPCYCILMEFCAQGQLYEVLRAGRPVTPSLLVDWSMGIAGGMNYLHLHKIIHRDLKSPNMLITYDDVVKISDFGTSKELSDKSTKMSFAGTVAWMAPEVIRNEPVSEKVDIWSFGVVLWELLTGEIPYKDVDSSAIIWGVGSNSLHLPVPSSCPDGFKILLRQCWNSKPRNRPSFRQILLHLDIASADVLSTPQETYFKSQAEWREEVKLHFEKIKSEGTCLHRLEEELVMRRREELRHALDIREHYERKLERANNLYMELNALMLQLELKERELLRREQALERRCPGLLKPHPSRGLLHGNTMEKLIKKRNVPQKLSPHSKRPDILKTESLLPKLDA
Experiment: DLK TR-FRET inhibition assay
Conditions: 5 nM GST-DLK, 40 nM HIS-MKK4 K131M substrate, 30 μM ATP, 60 minutes at ambient temperature
Exercise: state measured Ki for each of the molecules provided.
One number for each entry, in nM.

Could you report Ki for every entry in the following list?
1. Nc1ncc(-c2cc([C@H]3[C@@H]4C[C@H](N5CCOCC5)C[C@@H]43)n(CC3CC3)n2)cc1OC(F)F
2. CC(C)n1nc(-c2cnc(N)c(C(F)(F)F)c2)cc1[C@H]1[C@@H]2C[C@@H](N(C)C)C[C@@H]21

result:
1. 1.3
2. 2.9

Could you report Ki for every entry in the following list?
1. COC1CN([C@H]2C[C@@H]3[C@H](C2)[C@H]3c2cc(-c3cnc(N)c(OC(F)(F)F)c3)nn2C(C)C)C1
2. CC(C)n1nc(-c2cnc(N)c(C(F)(F)F)c2)cc1[C@H]1[C@@H]2C[C@H](N3C[C@@H]4C[C@H]3CN4C)C[C@@H]21
3. CCN1CCN([C@@H]2C[C@@H]3[C@H](C2)[C@H]3c2cc(-c3cnc(N)c(C(F)(F)F)c3)nn2C(C)C)CC1
4. Nc1ncc(-c2cc([C@H]3[C@@H]4C[C@@H](N5CCCOCC5)C[C@@H]43)n(CC(F)F)n2)cc1C(F)(F)F
5. CC(C)n1nc(-c2cnc(N)c(OC(F)F)c2)cc1[C@H]1[C@@H]2CC(C)(O)C[C@@H]21 (stereo partly shown)
6. CC(C)n1nc(-c2cnc(N)c(C(F)(F)F)c2)cc1[C@H]1[C@@H]2C[C@H](N3CCN(C4COC4)CC3)C[C@@H]21
7. CO[C@H]1C[C@@H]2[C@H](C1)[C@H]2c1cc(-c2cnc(N)c(OC(F)F)c2)nn1C(C)C

result:
[2.06, 2, 2.92, 5.57, 18.3, 7.79, 2.2]

Could you report Ki for every entry in the following list?
1. CC(C)n1nc(-c2cnc(N)c(C(F)(F)F)c2)cc1[C@H]1[C@@H]2C[C@@H](O)C[C@@H]21
2. CC(C)n1nc(-c2cnc(N)c(OC(F)F)c2)cc1[C@H]1[C@@H]2C[C@@H](N3CCOCC(F)(F)C3)C[C@@H]21
3. CC(C)n1nc(-c2cnc(N)c(OC(F)(F)F)c2)cc1[C@H]1[C@@H]2C[C@H](N3CCOC[C@@H]3C)C[C@@H]21

result:
18.8
4.5
4.12

###

Biological target: N-terminally GST-tagged DLK (catalytic domain amino acid 1-520) (Homo sapiens)
Construct: N-terminally GST-tagged DLK (catalytic domain amino acid 1-520)
Experiment: DLK TR-FRET inhibition assay
Settings: 5 nM GST-DLK, 40 nM HIS-MKK4 K131M substrate, 30 μM ATP, 60 minutes at ambient temperature
Exercise: state measured Ki for each of the molecules provided.
Give bare numbers, in nM.

# annotated cases, reported Ki shown
{"columns": ["MOLECULE", "TEST_TARGET", "UNIT_NAME", "Ki"],
 "data": [
  ["COCC1(F)CCN(C2C[C@@H]3C(c4cc(-c5cnc(N)c(OC(F)F)c5)nn4C(C)C)[C@@H]3C2)C1 (single isomer, unassigned) [compound 171]", "N-terminally GST-tagged DLK (catalytic domain amino acid 1-520) (Homo sapiens)", "nM", 5.4],
  ["Nc1ncc(-c2cc([C@H]3[C@@H]4C[C@H](N5CCOCC5)C[C@@H]43)n(CC3CC3)n2)cc1OC(F)(F)F", "N-terminally GST-tagged DLK (catalytic domain amino acid 1-520) (Homo sapiens)", "nM", 2.4]
]}

Could you report Ki for every entry in the following list?
1. CC(C)n1nc(-c2cnc(N)c(C(F)(F)F)c2)cc1[C@H]1[C@@H]2C[C@H](N(C)CC3COC3)C[C@@H]21
2. CC(C)n1nc(-c2cnc(N)c(OC(F)(F)F)c2)cc1[C@H]1[C@@H]2C[C@H](N3CCCN(C)CC3)C[C@@H]21
3. Nc1ncc(-c2cc([C@H]3[C@@H]4C[C@@H](N5CCOCC5)C[C@@H]43)nn2CC2CC2)cc1OC(F)F
4. Nc1ncc(-c2cc([C@H]3[C@@H]4C[C@@H](N5CCOCC5)C[C@@H]43)n(C3CCC3)n2)cc1OC(F)F

result:
1. 4.39
2. 1.2
3. 221
4. 3.5
